- target.or.system: Human 5-lipoxygenase (Homo sapiens)
- Construct: purchased Cayman 60402; host or cells: insect cells
- Sequence (P09917 whole entry): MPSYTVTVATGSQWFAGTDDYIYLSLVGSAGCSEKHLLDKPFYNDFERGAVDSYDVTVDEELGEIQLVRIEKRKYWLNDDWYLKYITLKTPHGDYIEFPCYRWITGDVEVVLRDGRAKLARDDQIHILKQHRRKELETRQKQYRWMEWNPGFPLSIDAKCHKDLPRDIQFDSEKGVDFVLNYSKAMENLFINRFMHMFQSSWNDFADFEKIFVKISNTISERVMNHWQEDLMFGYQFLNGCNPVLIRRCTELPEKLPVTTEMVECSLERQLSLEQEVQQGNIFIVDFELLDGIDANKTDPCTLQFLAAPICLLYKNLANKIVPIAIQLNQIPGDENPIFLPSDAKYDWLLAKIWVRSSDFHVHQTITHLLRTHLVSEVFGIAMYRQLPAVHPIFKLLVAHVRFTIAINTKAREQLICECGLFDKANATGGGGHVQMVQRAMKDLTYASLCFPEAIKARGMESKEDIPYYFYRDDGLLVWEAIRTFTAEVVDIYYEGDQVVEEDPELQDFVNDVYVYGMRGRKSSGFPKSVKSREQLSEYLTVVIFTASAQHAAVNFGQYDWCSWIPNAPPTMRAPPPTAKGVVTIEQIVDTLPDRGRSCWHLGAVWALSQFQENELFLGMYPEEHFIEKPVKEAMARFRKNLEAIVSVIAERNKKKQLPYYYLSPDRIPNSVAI
- assay.summary: Activity of compounds against 5-LO enzyme (LTB4 measurement and/or fluorescence method)
- Type: biochemical
- condition.context: 5-LO, single concentration of 10 uM in duplicate
- Protocol: The activity of compounds against 5-LO were determined by measuring LTB4 (leukotriene B4) levels and/or by a fluorescence method. Both approaches are outlined in more detail below; […] Relative quantification of LTB4 and LTB4-d4 (Internal Standard) was done using multi reaction monitoring (MRM) of the transitions of m/z 335→195 for LTB4, 339→197 for LTB4-d4 in electrospray ionization (ESI) negative mode. […]
attribute.measured: inhibition at 10 µM

Worked cases, inhibition at 10 µM given:
{"compound": "CCc1nc2cc(Cl)ccn2c1C(=O)NCc1ccc(-c2cccc(C)c2)cc1", "inhibition at 10 µM": "> 69%"}
{"compound": "CCc1nc2cc(Cl)ccn2c1C(=O)NCc1ccc(-c2ccc(F)cc2)cc1", "inhibition at 10 µM": "< 40%"}
{"compound": "CCOC(=O)C1CCN(c2ccc(CNC(=O)c3c(CC)nc4ccc(Cl)cn34)cc2)CC1", "inhibition at 10 µM": "40 to 69%"}
{"compound": "CCc1nc2ccc(Cl)cn2c1C(=O)N1CCC(OCc2ccc(Cl)cc2)CC1", "inhibition at 10 µM": "< 40%"}

Look up inhibition at 10 µM: CCc1nc2cc(Cl)ccn2c1C(=O)NCc1ccc(N2CCC(OCc3ccc(F)cc3)CC2)cc1
40 to 69%

Look up inhibition at 10 µM: CCc1nc2ccc(Cl)cn2c1C(=O)NCc1ccc(Oc2ccc(OC(F)(F)F)cc2)cc1
40 to 69%

Look up inhibition at 10 µM: CCc1nc2ccccn2c1C(=O)NCc1ccc(OCC(C)C)cc1
< 40%

Look up inhibition at 10 µM: CCc1nc2cc(Cl)ccn2c1C(=O)NCc1ccn(-c2ccc(C(F)(F)F)cc2)n1
40 to 69%
